# System: MALME-3M melanoma
# measurement-description: NCI tumour cell line growth inhibition, 48 h; in the data active = GI50 below about 0.43 µM; inactive = the rest
Choose one outcome from this list and give only that: active, inactive

Worked examples follow.
CC(C)=CCC/C(C)=C/CC/C(C)=C/CSc1ccccc1C(=O)O :: inactive
COc1ccc2c(=O)cc(C(Cl)(Cl)Cl)oc2c1 :: inactive
COc1cc(C(=O)N2CCN(c3ncnc4ccccc34)CC2)c(N)cc1OCc1ccccc1 :: inactive
CO/N=C(\C)c1ccc(Nc2cc(-c3ccccc3)nc3ccc(OC)cc23)cc1 :: inactive
CCOC(=O)c1cc2c(cc1Cl)SC(N(c1ccc(OC)cc1)S(=O)(=O)c1ccc(Cl)cc1)=NS2(=O)=O :: inactive
C[C@@]12CCC[C@@](C)(C(=O)O)C1CC[C@]13C[C@@](O)(CO)[C@](O)(CCC12)C3 (some centres not stated) :: inactive
O=C(c1ccccc1)C1OC1c1ccc([N+](=O)[O-])cc1 (configuration not stated) :: inactive
C[As](C)SCC(COC(=O)C(Cl)c1ccccc1)OC(=O)C(Cl)c1ccccc1 (configuration not stated) :: active

Req: Test call, this compound: CNC(=O)c1ccccc1Nc1nc(Nc2cc(OC)c(OC)c(OC)c2)ncc1Br
Resp: active

Req: Could you check what this test reported for CCC[CH2][Sn]1([CH2]CCC)[O]CC(CN(C)Cc2ccccc2)[O]1 (configuration not stated) ?
Resp: inactive

Req: Please share the test call associated with O=c1cc(-c2cccc3c2Sc2ccccc2S3)oc(N2CCOCC2)c1 .
Resp: inactive

Req: Record lookup: outcome of this test for COC(=O)c1cc(O)c2cc3c(cc2c1-c1cc(OC)c(OC)c(OC)c1)OCO3 ?
Resp: inactive
